Form field: IC50 (one value per entry).
Measured on: Human PD-L1/PD-1 (Homo sapiens, UniProt Q9NZQ7)
Construct: made in house; host or cells: HEK293T
Sequence (Q9NZQ7 with tags, fused parts or gaps): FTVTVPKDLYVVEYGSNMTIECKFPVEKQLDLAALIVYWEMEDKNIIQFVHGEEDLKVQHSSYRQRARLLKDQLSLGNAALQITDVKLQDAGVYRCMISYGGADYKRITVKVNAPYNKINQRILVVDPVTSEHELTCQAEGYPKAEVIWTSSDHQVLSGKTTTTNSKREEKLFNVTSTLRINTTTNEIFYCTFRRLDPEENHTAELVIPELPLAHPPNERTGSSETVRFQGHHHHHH
Test description: HTRF PD-1-Ig/PD-L1-His binding assay (human PD-L1)
Experimental parameters: value given instead of cluster; read-out: HTRF IC50 value
Text: The ability of the macrocyclic peptides of the present disclosure to bind to PD-L1 was investigated using a PD-1/PD-L1 Homogenous Time-Resolved Fluorescence (HTRF) binding assay. Homogenous Time-Resolved Fluorescence (HTRF) Assays of Binding of Soluble PD-1 to Soluble PD-L1. […]
Positions of bridges follow the written chain, without caps; N, C: chain ends. Non-standard residues stand in square brackets, D forms with d. Residues, ends and D or L forms follow the SMILES beside them. Phe(2,4-Cl2) = N[C@@H](Cc1ccc(Cl)cc1Cl)C(=O)O; hhPhe = N[C@@H](CCCc1ccccc1)C(=O)O; Hyp = O=C(O)[C@@H]1C[C@@H](O)CN1; NMeF = CN[C@@H](Cc1ccccc1)C(=O)O; NMeNle = CCCC[C@H](NC)C(=O)O; NMeA = CN[C@@H](C)C(=O)O; dThz = O=C(O)[C@H]1CSCN1; Sar = CNCC(=O)O
Give the quantity in µM, number only.

Please review the following examples before continuing.
compound="CCCC[C@H]1C(=O)N(C)CC(=O)N[C@@H](CC(=O)O)C(=O)N[C@@H](C(C)C)C(=O)N(C)[C@@H](Cc2ccccc2)C(=O)N[C@@H](Cc2ccc(O)cc2)C(=O)N(C)CC(=O)N[C@@H](Cc2ccc(Cl)cc2Cl)C(=O)N[C@@H](Cc2ccc(O)cc2)C(=O)N[C@@H](CC(C)C)C(=O)N[C@H](C(=O)NCC(N)=O)CSCC(=O)N[C@@H](Cc2ccccc2)C(=O)N(C)[C@@H](Cc2ccccc2)C(=O)N1C [Example 3549] ({CH2CO}-F[NMeF][NMeNle][Sar]DV[NMeF]Y[Sar][Phe(2,4-Cl2)]YLCG-NH2; thioether N-13)" measured_property=IC50 readout_value=0.272
compound="CCCC[C@H]1C(=O)N2CSC[C@@H]2C(=O)N[C@@H](CC(=O)O)C(=O)N[C@@H](C(C)C)C(=O)N(C)[C@@H](Cc2ccccc2)C(=O)N[C@@H](Cc2ccc(O)cc2)C(=O)N(C)CC(=O)N[C@@H](Cc2c[nH]c3ccccc23)C(=O)N[C@@H](Cc2ccc(O)cc2)C(=O)N[C@@H](CC(C)C)C(=O)N[C@H](C(=O)NCC(N)=O)CSCC(=O)N[C@@H](Cc2ccccc2)C(=O)N(C)[C@@H](Cc2ccccc2)C(=O)N1C [Example 3600] ({CH2CO}-F[NMeF][NMeNle][dThz]DV[NMeF]Y[Sar]WYLCG-NH2; thioether N-13)" measured_property=IC50 readout_value=0.0061
compound="CCCC[C@H]1C(=O)N(C)[C@@H](CCCC)C(=O)N[C@@H](CCCNC(=N)N)C(=O)N[C@H](C(=O)NCC(N)=O)CSCC(=O)N[C@@H](CCCc2ccccc2)C(=O)N(C)[C@@H](C)C(=O)N[C@@H](CC(N)=O)C(=O)N2CCC[C@H]2C(=O)N[C@@H](Cc2cnc[nH]2)C(=O)N[C@@H](CC(C)C)C(=O)N2CCC[C@H]2C(=O)N[C@@H](Cc2c[nH]c3ccccc23)C(=O)N[C@@H](CO)C(=O)N[C@@H](Cc2c[nH]c3ccccc23)C(=O)N1C [Example 7018] ({CH2CO}-[hhPhe][NMeA]NPHLPWSW[NMeNle][NMeNle]RCG-NH2; thioether N-14)" measured_property=IC50 readout_value=0.0136

Here's the next entry for you.
Query string: Fill in the blank: the reported IC50 of CCCC[C@H]1C(=O)N(C)[C@@H](CCCC)C(=O)N[C@@H](CC(C)C)C(=O)N[C@H](C(=O)NCC(N)=O)CSCC(=O)N[C@@H](Cc2ccc(O)cc2)C(=O)N(C)[C@@H](C)C(=O)N[C@@H](CC(N)=O)C(=O)N2CCC[C@H]2C(=O)N[C@@H](Cc2c[nH]cn2)C(=O)NCC(=O)N2C[C@H](O)C[C@H]2C(=O)N[C@@H](Cc2c[nH]c3ccccc23)C(=O)N[C@@H](CO)C(=O)N[C@@H](Cc2c[nH]c3ccccc23)C(=O)N1C [Example 5122] ({CH2CO}-Y[NMeA]NPHG[Hyp]WSW[NMeNle][NMeNle]LCG-NH2; thioether N-14) is ____.
Result string: 0.0348
